Values were extracted from the supplement of paper PMC11061612.

Listing: combination Emax of selected molecules
# Tested on: KG-1 (Acute Myeloid Leukemia)
# MEASUREMENT NOTES: combination Emax (second highest fraction inhibited in the dose matrix, 72 h); higher = more inhibition; extreme values may be limits of the assay
OUTCOME MEASURE: combination Emax

[[record]]
molecule = "Cc1cc2ncnn2cc1Nc1ncc2c(n1)n(C1CCOCC1)c(=O)n2C [AZD7648] + C[C@@H]1COCCN1C2=NC(=NC(=C2)C3(CC3)[S@](=N)(=O)C)C4=C5C=CNC5=NC=C4 [AZD6738] (first compound max 10 µM, 7x7, partner max 10 µM)"
recorded_value = 0.67

[[record]]
molecule = "COc1nnc2ccc(N3CCC(c4ccc(OCCN5CCN(C)C(=O)[C@H]5C)cc4)CC3)nn12 [AZD5153] + CC1(C)CCC(CN2CCN(c3ccc(C(=O)NS(=O)(=O)c4ccc(NCC5CCOCC5)c([N+](=O)[O-])c4)c(Oc4cnc5[nH]ccc5c4)c3)CC2)=C(c2ccc(Cl)cc2)C1 [Venetoclax] (first compound max 1 µM, 7x7, partner max 1 µM)"
recorded_value = 1

[[record]]
molecule = "C[C@@H](c1ccc2nccn2c1)n1nnc2ncc(-c3cnn(C)c3)nc21 [Savolitinib] + CC1(C)CCC(CN2CCN(c3ccc(C(=O)NS(=O)(=O)c4ccc(NCC5CCOCC5)c([N+](=O)[O-])c4)c(Oc4cnc5[nH]ccc5c4)c3)CC2)=C(c2ccc(Cl)cc2)C1 [Venetoclax] (first compound max 1 µM, 7x7, partner max 1 µM)"
recorded_value = 0.38

